Every entry's value here was drawn from ChEMBL document CHEMBL5058577.

Test system: HEK-293T
Test: Multiplex assay against HEK293T
Format: toxicity, cell-based
Conditions: human, 24 h, 10 µM, compound concentration 10 uM, replicate 2
Examples of molecules with documented Population Healthy Nuclei (%) follow.

[
  {
    "molecule": "Oc1c(CN2CCN(c3ccccn3)CC2)cc(Cl)c2cccnc12",
    "Population Healthy Nuclei (%)": 63
  },
  {
    "molecule": "Cl.Clc1ccc2nsnc2c1NC1=NCCN1 [TIZANIDINE HYDROCHLORIDE]",
    "Population Healthy Nuclei (%)": 81
  },
  {
    "molecule": "CN(C)c1ccnc2sc3c(=O)n(N4CCCCCC4)cnc3c12",
    "Population Healthy Nuclei (%)": 74
  },
  {
    "molecule": "C[C@H]1[C@H]2CC[C@H]3[C@@H]4CC=C5C[C@@H](N(C)C)CC[C@]5(C)[C@H]4CC[C@]23CN1C",
    "Population Healthy Nuclei (%)": 82
  },
  {
    "molecule": "O=C(O)Cc1ccccc1Nc1c(Cl)cccc1Cl",
    "Population Healthy Nuclei (%)": 75
  },
  {
    "molecule": "CCOc1c2c(c(OCC)c3ncccc13)CN(c1ccc(CS(=O)(=O)NC(=O)Cc3ccccc3OC)cc1C)C2=O",
    "Population Healthy Nuclei (%)": 82
  },
  {
    "molecule": "CN(C)CCCc1cc(C(=O)Nc2ccc(-c3ccncc3)cc2)ccc1O.Cl.Cl",
    "Population Healthy Nuclei (%)": 74
  },
  {
    "molecule": "Cc1nc2ccc(Oc3ccc(F)cc3)cc2c(=O)n1C[C@H]1CCCN(C(C)C)C1.Cl",
    "Population Healthy Nuclei (%)": 75
  },
  {
    "molecule": "CCCC(CCC)C(=O)O",
    "Population Healthy Nuclei (%)": 86
  },
  {
    "molecule": "CNC[C@H](O)c1ccc(O)c(O)c1 [EPINEPHRINE]",
    "Population Healthy Nuclei (%)": 71
  },
  {
    "molecule": "COc1cc(C(=O)N(CCCc2ccccc2)Cc2ccc(CC(=O)O)cc2)cc(OC)c1C",
    "Population Healthy Nuclei (%)": 79
  },
  {
    "molecule": "CC(C)(C)c1ccc(S(=O)(=O)Nc2ccc(Cl)cc2C(=O)c2cc[n+]([O-])cc2)cc1",
    "Population Healthy Nuclei (%)": 82
  },
  {
    "molecule": "CC1(COc2ccc3c(c2)ncn3-c2ccc3cccc(N4CCC(N)CC4)c3n2)COC1",
    "Population Healthy Nuclei (%)": 15
  },
  {
    "molecule": "N[C@@]1(C(=O)O)CO[C@H]2[C@H](C(=O)O)[C@H]21",
    "Population Healthy Nuclei (%)": 82
  },
  {
    "molecule": "CSc1ccccc1N1CCN(CCCCCC(=O)NC2CCCc3ccccc32)CC1.Cl (configuration not stated)",
    "Population Healthy Nuclei (%)": 73
  },
  {
    "molecule": "c1cc(OCCCN2CCCCC2)ccc1CN1CCCCC1",
    "Population Healthy Nuclei (%)": 79
  },
  {
    "molecule": "O=C(NCCO)c1cccc(-c2cc(Nc3ccc(OC(F)(F)F)cc3)ncn2)c1",
    "Population Healthy Nuclei (%)": 77
  },
  {
    "molecule": "O=C1COc2nccc(-c3ccccc3F)c2CN1Cc1cc(C(F)(F)F)cc(C(F)(F)F)c1",
    "Population Healthy Nuclei (%)": 79
  },
  {
    "molecule": "CC(=O)O[C@H]1C(=O)[C@@]2(C)[C@H]([C@H](OC(=O)c3ccccc3)[C@]3(O)C[C@H](OC(=O)[C@H](O)[C@@H](NC(=O)c4ccccc4)c4ccccc4)C(C)=C1C3(C)C)[C@]1(OC(C)=O)CO[C@@H]1C[C@@H]2O",
    "Population Healthy Nuclei (%)": 75
  },
  {
    "molecule": "COc1ccccc1N1CCN(CCCCNC(=O)c2ccc3ccccc3c2)CC1.Cl",
    "Population Healthy Nuclei (%)": 69
  },
  {
    "molecule": "CCNC1(C(N)=O)CCN(c2ncnc3c2nc(-c2ccccc2Cl)n3-c2ccc(Cl)cc2)CC1",
    "Population Healthy Nuclei (%)": 77
  },
  {
    "molecule": "CC[C@H]1OC(=O)[C@H](C)[C@@H](O[C@H]2C[C@@](C)(OC)[C@@H](O)[C@H](C)O2)[C@H](C)[C@@H](O[C@@H]2O[C@H](C)C[C@H](N(C)C)[C@H]2O)[C@@]2(C)CC(C)=C(O2)[C@H](C)[C@@H](O)[C@]1(C)O",
    "Population Healthy Nuclei (%)": 71
  },
  {
    "molecule": "C[C@H](NC(=O)c1c(C(F)F)nn(C)c1Oc1cccc(C(F)(F)F)c1)c1ccc(C(=O)O)cc1",
    "Population Healthy Nuclei (%)": 79
  },
  {
    "molecule": "CN1CCN2c3ncccc3Cc3ccccc3C2C1 (configuration not stated)",
    "Population Healthy Nuclei (%)": 80
  },
  {
    "molecule": "COc1cc(NC(=O)CCN2CCC(OC(=O)Nc3ccccc3-c3ccccc3)CC2)c(Cl)cc1CNC[C@H](O)c1ccc(O)c2[nH]c(=O)ccc12",
    "Population Healthy Nuclei (%)": 73
  },
  {
    "molecule": "CCCN1CCC[C@@H]2Cc3n[nH]cc3C[C@H]21.Cl [QUINPIROLE HYDROCHLORIDE]",
    "Population Healthy Nuclei (%)": 78
  },
  {
    "molecule": "C[C@@H]1C[C@H]2[C@@H]3CCC4=CC(=O)C=C[C@]4(C)[C@@]3(F)[C@@H](O)C[C@]2(C)[C@@]1(O)C(=O)CO",
    "Population Healthy Nuclei (%)": 79
  },
  {
    "molecule": "Cc1ccc(C(C)(O)c2nc3ccccc3s2)c(C)c1 (configuration not stated)",
    "Population Healthy Nuclei (%)": 78
  },
  {
    "molecule": "CC(=O)NCCc1c(Cc2ccccc2)[nH]c2ccccc12",
    "Population Healthy Nuclei (%)": 77
  },
  {
    "molecule": "Cc1ccc(F)cc1C(=O)Nc1ccc(C(=O)N2Cc3cccn3Cc3ccccc32)c(Cl)c1",
    "Population Healthy Nuclei (%)": 72
  },
  {
    "molecule": "Cc1ccc(-c2ccc(F)cc2COc2ccc(CCC(=O)O)cc2)cc1",
    "Population Healthy Nuclei (%)": 87
  },
  {
    "molecule": "COc1ccc2c(c1)C(C(=O)N(Cc1ccc(N(C)C)cc1)c1ccc(C(C)C)cc1)CCC2.Cl (configuration not stated)",
    "Population Healthy Nuclei (%)": 76
  }
]
